Data provenance: ChEMBL document CHEMBL4196027

# Test system: HL-60
# assayText: Cytotoxicity against human HL60 cells assessed as reduction in cell proliferation after 48 hrs by MTT assay
# Type: functional, cell-based
# conditionNotes: Homo sapiens, HL-60, 48 h
measuredProperty: IC50 (µM)

>>> resultvalue("COC(=O)[C@@]12Oc3ccc(-c4ccc(O)c5c4O[C@]4(C(=O)OC)C(=C(O)C[C@H](C)[C@H]4O)C5=O)c(O)c3C(=O)C1=C(O)C[C@H](CO)[C@H]2O")
47.3
>>> resultvalue("COC(=O)[C@@]12Oc3c(-c4ccc5c(c4O)C(=O)C4=C(O)C[C@H](C)[C@@H](O)[C@]4(C(=O)OC)O5)ccc(O)c3C(=O)C1=C(O)C[C@H](CO)[C@H]2O")
49.5
>>> resultvalue("COC(=O)[C@@]12Oc3ccc(-c4ccc(O)c5c4O[C@]4(C(=O)OC)C(=C(O)C[C@H](C)[C@H]4O)C5=O)c(O)c3C(=O)C1=C(O)C[C@H](C)[C@H]2O")
0.5
>>> resultvalue("COC(=O)[C@@]12Oc3c(-c4ccc(O)c5c4O[C@]4(C(=O)OC)C(=C(O)C[C@H](C)[C@H]4O)C5=O)ccc(O)c3C(=O)C1=C(O)C[C@H](C)[C@H]2O")
0.9
>>> resultvalue("COC(=O)c1c(O)c(C)cc(O)c1C(=O)c1c(O)ccc(-c2ccc3c(c2O)C(=O)C2=C(O)C[C@H](C)[C@@H](O)[C@]2(C(=O)OC)O3)c1O")
27.8
>>> resultvalue("COC(=O)[C@@]12Oc3cc(C)c(-c4ccc5c(c4O)C(=O)C4=C(O)C[C@H](C)[C@@H](O)[C@]4(C(=O)OC)O5)c(O)c3C(=O)C1=C(O)CC[C@H]2O (stereo in doubt; 1)")
13.4
